Consider the following binders; for each one, report its fold over background (A450).
- experimentalSystem: T1, human TREM2 full length stalk region peptide (aa 129-172) (human, biotinylated (site not stated))
- T1 construct: also called Human TREM2 peptide (aa 129-172); full-length TREM2 stalk peptide
- T1 peptide: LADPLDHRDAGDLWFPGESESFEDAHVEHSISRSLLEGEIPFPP
- assayProcedure: ELISA on biotinylated peptide captured by streptavidin; A450 normalised to isotype control
Number in fold, nothing else.

Q: What measured fold over background (A450) goes with CL0020161 (antibody, V domains shown, also called Clone CL0020161) VH: EVQLVESGGGLVQPGRSMKLSCAALGFTFSNYYMAWVRQAPRKGLEWVASISTGGDNTYYRDSVKGRFTISRDNAKSTLYMQMDSLRSEDTATYYCVRSFIVGTTGYYFDYWGQGVMVTVSS VL: DIVLTQSPALAVSLGQRATISCKTNQNVDYYGNNYMHWYQQTPGQQPKLLIYFASNLASGIPARFSGRGSGTDFTLTIDPVEADDTATYYCQQSRNLPTFGGGTKLELK ?
A: 1.4

Q: What measured fold over background (A450) goes with CL0020201 (antibody, V domains shown, also called Clone CL0020201) VH: EVQLQQSGPVLVKPGASVRMSCKPSGYTFTDYYMNWVKQSHGKSLEWIGSINPYTGGSSYNQNFRGKATLTVDKSSSTAYMELNSLTSEDSAVYYCARGSYYSNLGFAYWGQGTLVTVSA VL: DVQLTQSPSFLTASPGETITINCRASKSISKYLAWYQEKPGKTNKLLISSGSTLQSGIPSRFSGSGSGTDFTLTISSLEPEDFAMYYCQQYSEYPFTFGSGTKLEIK ?
A: 14

Q: What measured fold over background (A450) goes with CL0020141 (antibody, V domains shown, also called Clone CL0020141) VH: EVTLVESGGGLVQPGGSLRLSCATSGFTFTDYYMSWVRQPPGKALEWLGFIRDKANGYTTDYSASVKGRFTISRDNSQNILYLQMNTLRAEDSATYYCSRLLRAQGFAYWGQGTLVTVSA VL: DIVMSQSPSSLGVSIGEKVIMSCTSGQSLLYSNNQKNYLAWYQQKPGQSPKLLIYWASTRESGVPDRFTGSGSGTDFTLTINSVKAEDLAVYYCQQYYRNPFTFGSGTKLEIK ?
A: 45
